Each recorded value in this set is attributed to ChEMBL document CHEMBL3580572.

Target: Delta-type opioid receptor (Homo sapiens)
Sequence (P41143 whole entry): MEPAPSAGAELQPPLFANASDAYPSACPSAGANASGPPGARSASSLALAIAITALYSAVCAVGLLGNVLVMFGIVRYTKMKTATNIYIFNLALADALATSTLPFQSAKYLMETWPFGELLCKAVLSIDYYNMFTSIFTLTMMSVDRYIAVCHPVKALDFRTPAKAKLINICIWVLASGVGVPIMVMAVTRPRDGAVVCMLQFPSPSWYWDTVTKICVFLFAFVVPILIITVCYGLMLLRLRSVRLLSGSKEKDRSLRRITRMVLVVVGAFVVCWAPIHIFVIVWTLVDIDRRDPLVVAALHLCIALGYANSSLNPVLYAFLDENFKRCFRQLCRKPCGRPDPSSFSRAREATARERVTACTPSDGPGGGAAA
Assay: Agonist activity at human recombinant delta opioid receptor expressed in CHO cells co-expressing Galphaq66Di5 assessed as stimulation of calcium release by Fluo-4 AM dye-based fluorescence assay
Assay type: functional, cell-based
pEC50: −log10 of the molar value.
Reported pEC50 values for a set of molecules
Property: pEC50

1. NC(=O)[C@@H]1CC(=O)NCCCC[C@@H](NC(=O)[C@@H](N)Cc2ccc(O)cc2)C(=O)N[C@@H](Cc2ccccc2)C(=O)N[C@@H](Cc2ccc(F)cc2F)C(=O)N1; 6.90
2. NC(=O)[C@@H]1CC(=O)NCCCC[C@@H](NC(=O)[C@@H](N)Cc2ccc(O)cc2)C(=O)N[C@@H](Cc2ccccc2)C(=O)N[C@@H](Cc2ccc(F)cc2)C(=O)N1; 7.29
3. Cc1cc(O)cc(C)c1C[C@H](N)C(=O)N[C@@H]1CCCCNC(=O)C[C@@H](C(N)=O)NC(=O)[C@H](Cc2ccc(F)cc2F)NC(=O)[C@H](Cc2ccccc2)NC1=O; 8.06
